System: CCRF-CEM leukemia
Test: NCI-60 one-dose screen, 48 h (100 = growth as untreated, 0 = no growth, -100 = all killed)
Settings: 10 µM unless noted
Compounds without any hit were thinned out: in the full panel of roughly 83,000, 20% have a hit.
REPORTED METRIC: growth (%)
Expressed in %, but write only the number.

[[record]]
smiles_entry = "O=C1c2ccccc2C(=O)c2c([N+](=O)[O-])ccc(Cl)c21"
reported_metric = "growth"
experimental_value = 63.2


Bench note: what growth did `[O-][n+]1c(Cl)cc(Cl)c2ccccc21` show?
87.5

Bench note: what growth did `OCc1cnccc1NCCCOc1ccccc1` show?
88.8

Bench note: what growth did `COc1ccccc1NS(=O)(=O)c1cccc(C(=O)Nc2ccc(Br)cc2)c1` show?
40.1

Bench note: what growth did `COc1ccc(/C=C2\COc3ccc(-c4ccccc4)cc3C2=O)c(OC)c1` show?
71.2

Bench note: what growth did `O=C(Nc1ccc(Cl)cc1)c1cc(NCc2cc(O)ccc2O)ccc1O` show?
5.54
